Reference source for all entries: patent US11666558B2

assay: Ocular tissue concentrations (aqueous humor, vitreous humor, iris, retina, choroid, cornea) after topical ocular, subcutaneous and intravitreal administration; type: in vivo, New Zealand White rabbits; details: New Zealand White, rabbit, iris, topical, 1.2 mg/eye, topical ocular 1.2 mg/eye (~0.7 mg/kg/dose); 4 hr; read-out: Iris tissue Conc., individual eyes (OD, OS)
Counter-ions that a name gives are not always drawn.
measured parameter: concentration at 4 h (ng/g)
The figure you give is taken to be in ng/g; do not add the unit.

Task: Quick one: concentration at 4 h of COC(=O)N[C@@H](Cc1ccccc1)C(=O)N[C@@H](Cc1ccc(NS(=O)(=O)O)cc1)c1csc(-c2cccs2)n1 [Compound 1 sodium salt] ?
Result: 30.7

---

test: Ocular tissue concentrations (aqueous humor, vitreous humor, iris, retina, choroid, cornea) after topical ocular, subcutaneous and intravitreal administration; type: in vivo, New Zealand White rabbits; details: New Zealand White, rabbit, cornea, other: intravitreal, 2.5 mg/eye, Cornea, 48 hr, right eye, intravitreal 2.5 mg/eye (group 5), individual animals; read-out: Conc. (ng/g) OD
measured parameter: concentration at 48 hr (ng/g)
The figure you give is taken to be in ng/g; do not add the unit.

Task: Quick one: concentration at 48 hr of COC(=O)N[C@@H](Cc1ccccc1)C(=O)N[C@@H](Cc1ccc(NS(=O)(=O)O)cc1)c1csc(-c2cccs2)n1 [Compound 1] ?
Result: 4810

---

assay: Ocular tissue concentrations (aqueous humor, vitreous humor, iris, retina, choroid, cornea) after topical ocular, subcutaneous and intravitreal administration; format: in vivo, New Zealand White rabbits; conditions: New Zealand White, rabbit, retina, other: intravitreal, 2.5 mg/eye, Retina, 72 hr; sodium salt, intravitreal 2.5 mg/eye, Group 4; read-out: Retina Avg.
measured parameter: concentration at 72 h (ng/g)
The figure you give is taken to be in ng/g; do not add the unit.

Task: Quick one: concentration at 72 h of COC(=O)N[C@@H](Cc1ccccc1)C(=O)N[C@@H](Cc1ccc(NS(=O)(=O)O)cc1)c1csc(-c2cccs2)n1 [Compound 1] ?
Result: 6060

---

Test: Ocular tissue concentrations (aqueous humor, vitreous humor, iris, retina, choroid, cornea) after topical ocular, subcutaneous and intravitreal administration
Type: in vivo, New Zealand White rabbits
Conditions: New Zealand White, rabbit, choroid, subcutaneous, 5 mg/kg/dose, TABLE 16: Choroid, 0.5 hr; free acid, subcutaneous 5 mg/kg/dose, Group 3; read-out: Choroid Average
Description: To measure the concentration of Compound 1 in plasma and ocular tissues following topical ocular, subcutaneous, and intravitreal administration, New Zealand White rabbits were administered Compound 1, and plasma and ocular samples were collected at pre-determined time points. […] Ocular tissue samples from both eyes of each animal were collected and weights were recorded. Plasma and ocular tissue sample concentrations of Compound 1 were determined by LC-MS/MS. […]
measured parameter: concentration at 0.5 h (ng/g)
The figure you give is taken to be in ng/g; do not add the unit.

Task: Quick one: concentration at 0.5 h of COC(=O)N[C@@H](Cc1ccccc1)C(=O)N[C@@H](Cc1ccc(NS(=O)(=O)O)cc1)c1csc(-c2cccs2)n1 [Compound 1] ?
Result: 127

---

experiment: Ocular tissue concentrations (aqueous humor, vitreous humor, iris, retina, choroid, cornea) after topical ocular, subcutaneous and intravitreal administration; assay type: in vivo, New Zealand White rabbits; settings: New Zealand White, rabbit, choroid homogenate, subcutaneous, 5 mg/kg/dose, Choroid homogenate, 0.5 hr, OS; free acid, subcutaneous 5 mg/kg/dose, Group 3; read-out: Choroid Conc. (ng/mL) OS
measured parameter: concentration at 0.5 h (ng/mL)
The figure you give is taken to be in ng/mL; do not add the unit.

Task: Quick one: concentration at 0.5 h of COC(=O)N[C@@H](Cc1ccccc1)C(=O)N[C@@H](Cc1ccc(NS(=O)(=O)O)cc1)c1csc(-c2cccs2)n1 [Compound 1] ?
Result: 7.55
